These entries and their values trace back to PubChem BioAssay (NCI).

- System: HCC-2998 colon
- Experimental Protocol: NCI-60 one-dose screen, 48 h (100 = growth as untreated, 0 = no growth, -100 = all killed)
- Measurement Setup: 10 µM unless noted
The panel holds about 83,000 compounds, 20% with a hit somewhere; the sample as a whole holds those more often. Calls of active or inactive are those of the source. How the source made its calls: active means growth percent below 10; inactive means the rest.
Test Readout: growth

- Compound: "COc1ccc(C2CC(c3cccc(OC)c3)=NN2C(=O)c2cc(OC)c(OC)c(OC)c2)cc1 (stereo not given)"
  Test Readout: "growth"
  Measurement: "-10.3% (active)"
- Compound: "CN(C)c1ccc(-c2ccc3[nH]c(=O)nc(-c4ccccc4)c3c2)cn1"
  Test Readout: "growth"
  Measurement: "66.3% (inactive)"
- Compound: "CNC(=O)c1cc(Oc2cccc3nc(Nc4ccc(F)c(Cl)c4)ccc23)ccn1"
  Test Readout: "growth"
  Measurement: "101% (inactive)"
- Compound: "Cc1nn(-c2ccccc2)c2nc3c(c(-c4ccc(Cl)cc4)c12)CNC1(CCSCC1)N3"
  Test Readout: "growth"
  Measurement: "101% (inactive)"
- Compound: "O=C(N/N=C/C=C/c1ccc([N+](=O)[O-])o1)c1cc2ccccc2cc1O"
  Test Readout: "growth"
  Measurement: "-100% (active)"

====

- Test system: EKVX NSCLC
- Experimental Protocol: NCI-60 one-dose screen, 48 h (100 = growth as untreated, 0 = no growth, -100 = all killed)
- Measurement Setup: 10 µM unless noted
- Procedure: Growth inhibition of the EKVX human Non-Small Cell Lung tumor cell line is measured as a screen for anti-cancer activity. Cells are grown in 96 well plates and exposed to the test compound for 48 hours. Compounds are tested at a single concentration, which is 10^-5 M for most compounds. The reported endpoint is percent growth (GI% or GIPRCNT), where numbers from 0 - 100% represent growth inhibition, and numbers from -100% - 0 represent cell death. […]
Compounds without any hit were thinned out: in the full panel of roughly 83,000, 20% have a hit.
growth values for the molecules below.
Test Readout: growth (%)

- Molecule: "COC(=O)c1c2c(c[n+]([O-])c1C)C(=O)C=CC2=O"
  Unit Spec: "%"
  Measurement: 101
- Molecule: "O=C1/C(=C\\c2cccnc2)SC(=S)N1CCc1ccc(O)cc1"
  Unit Spec: "%"
  Measurement: 64.7
- Molecule: "Cc1ccc(C2SCC(=O)N2Cc2ccccc2)cc1 (stereo unspecified)"
  Unit Spec: "%"
  Measurement: 89.5
- Molecule: "CCOC(=O)c1csc(NC(=O)COc2cccc(/C=C3\\Oc4cc(OC)ccc4C3=O)c2)n1"
  Unit Spec: "%"
  Measurement: 98.6
- Molecule: "Cn1c2c(c3ccc(Cl)c(Cl)c31)C(C#N)C1(CCNCC1)NC2=O (stereo unspecified)"
  Unit Spec: "%"
  Measurement: 46.2
- Molecule: "O=C(/C=C/c1c(Cl)nc2sccn12)c1ccc(F)c(F)c1"
  Unit Spec: "%"
  Measurement: 74
- Molecule: "Cn1c(I)c(C#C[Si](C)(C)C)c(=O)n(C(=O)c2ccccc2)c1=O"
  Unit Spec: "%"
  Measurement: 91.2
- Molecule: "Cc1cccc(Cc2cnc(NC(=O)c3ccc4nnsc4c3)s2)c1"
  Unit Spec: "%"
  Measurement: 87.4
- Molecule: "COc1cccc(-c2nc3sccn3c2-c2ccnc(NCCNS(=O)(=O)c3ccc(C(F)(F)F)cc3)c2)c1"
  Unit Spec: "%"
  Measurement: 40.4
- Molecule: "O=C(NC(CSSCC(NC(=O)c1ccccc1)C(=O)O)C(=O)O)c1ccccc1 (stereo unspecified)"
  Unit Spec: "%"
  Measurement: 103
- Molecule: "Fc1c[c-]c(-c2ccccn2)c(F)c1.[CH3-].[Pt+2].c1ccc(P(C[PH+](c2ccccc2)c2ccccc2)c2ccccc2)cc1"
  Unit Spec: "%"
  Measurement: -12
- Molecule: "CC1CC(C(C)(C)C)C(=O)C(C(C)(C)C)C1 (stereo unspecified)"
  Unit Spec: "%"
  Measurement: 101
- Molecule: "Nc1cc2c3c(cccc3c1)C(=O)N(CCN1CCCC1)C2=O"
  Unit Spec: "%"
  Measurement: 73
- Molecule: "O=c1cc(-c2ccc(Cl)cc2)[nH]c2ccccc12"
  Unit Spec: "%"
  Measurement: 68.3
- Molecule: "Cc1c(O)cc(-c2cnc(N/N=C\\c3ccc(Cl)cc3)s2)c(O)c1C"
  Unit Spec: "%"
  Measurement: 64.3
- Molecule: "CC(=O)C(C)Cc1cc2c(cc1C)C(C)(C)CCC2(C)C (stereo unspecified)"
  Unit Spec: "%"
  Measurement: 94.4
- Molecule: "Cc1c2c(c(C)c3c1oc1cc(O)ccc13)C(=O)N(CCN1CCCCC1)C2=O"
  Unit Spec: "%"
  Measurement: 101
- Molecule: "O=C(/C=C/c1ccc(Cl)nc1)c1ccc(Cl)cc1Cl"
  Unit Spec: "%"
  Measurement: 97.5
- Molecule: "CC(=O)O[C@]1(C(C)=O)CCC2C3C[C@H](C)C4=CC(=O)CC[C@]4(C)C3CC[C@@]21C (stereo partly specified)"
  Unit Spec: "%"
  Measurement: 72.6
- Molecule: "COCCN(C(=O)c1ccc(F)cc1F)c1c(N)n(Cc2ccccc2)c(=O)[nH]c1=O"
  Unit Spec: "%"
  Measurement: 109
- Molecule: "COc1cc(C2CC(=O)Nc3c2c(C)nn3-c2nc3ccccc3[nH]2)cc2c1OCC(=O)N2 (stereo unspecified)"
  Unit Spec: "%"
  Measurement: 79.3

====

- Test system: DU-145 prostate
- Experimental Protocol: NCI-60 one-dose screen, 48 h (100 = growth as untreated, 0 = no growth, -100 = all killed)
- Measurement Setup: 10 µM unless noted
The panel holds about 83,000 compounds, 20% with a hit somewhere; the sample as a whole holds those more often. Calls of active or inactive are those of the source. Rule for the calls: active = growth percent below 10; inactive = the rest.

- Compound: "O=C(COc1ccc(/C=C2\\Oc3ccccc3C2=O)cc1)c1ccc(Cl)cc1"
  Tested System: "DU-145 prostate"
  growth: "119% (inactive)"
- Compound: "CCN(CC)CCCC(C)Nc1c2ccc(Cl)cc2nc2ccc(O)cc12 (stereo not given)"
  Tested System: "DU-145 prostate"
  growth: "41.3% (inactive)"
- Compound: "COc1ccc(-c2csc(C3=C(O)CN(C(C)C)C3=N)n2)cc1OC"
  Tested System: "DU-145 prostate"
  growth: "108% (inactive)"
- Compound: "COc1cc(Cn2ncc3ccc(NC(=O)c4cc5ccccc5oc4=N)cc32)cc(OC)c1OC"
  Tested System: "DU-145 prostate"
  growth: "88.5% (inactive)"
- Compound: "CC(C)(C)n1cc(-c2ccnc(NCCCNS(=O)(=O)c3ccccc3)c2)c(-c2ccccc2)n1"
  Tested System: "DU-145 prostate"
  growth: "83.7% (inactive)"
- Compound: "O=C(Cc1ccc(F)c(F)c1)Nc1cc(C2(C(F)(F)F)CC2)nn1Cc1ccccc1"
  Tested System: "DU-145 prostate"
  growth: "20.5% (inactive)"
- Compound: "Nc1ccc2c(c1)c(N)nn2C(=O)Nc1ccc(Cc2ccccc2)cc1"
  Tested System: "DU-145 prostate"
  growth: "79.3% (inactive)"
- Compound: "O=C(NC(Cc1nnc2n(Cc3ccccc3)c(=O)c3c4c(sc3n12)CCCC4)c1ccc(Cl)cc1)c1ccccc1 (stereo not given)"
  Tested System: "DU-145 prostate"
  growth: "96.7% (inactive)"
- Compound: "COC(=O)/C=C1\\S/C(=N\\NS(=O)(=O)c2ccc(C)cc2)N(c2ccccc2)C1=O"
  Tested System: "DU-145 prostate"
  growth: "105% (inactive)"
- Compound: "CCN(CC)c1ccc(C(=O)c2ccc(N(CC)CC)cc2)cc1"
  Tested System: "DU-145 prostate"
  growth: "20.2% (inactive)"

====

- Test system: MOLT-4 leukemia
- Experimental Protocol: NCI-60 one-dose screen, 48 h
- Measurement Setup: 10 µM unless noted
This is part of a sample that, as a whole, favours compounds with a hit. Of some 83,000 tested, about 20% had one in any assay. Activity calls are given as the source filed them. How the source made its calls: active means growth percent below 10; inactive means the rest.
Labels: active, inactive

- Compound: "Cc1cc(O)c(C2=NN(c3ccc(S(N)(=O)=O)cc3)C(c3ccccc3Cl)C2)cc1Cl (centres undefined)"
  Class Label: "active"
- Compound: "CCCCCCCCCCCCCCCCCC1=NCCN1CCOC1=C(Cl)C(=O)c2ccccc2C1=O"
  Class Label: "inactive"
- Compound: "COc1cc(C(=O)/C=C/c2c(-c3ccc(F)cc3)nc3sc(C)cn23)cc(OC)c1OC"
  Class Label: "active"
- Compound: "NC(=O)c1ccc[n+]([C@@H]2O[C@H](COP(=O)([O-])OP(=O)(O)OC[C@H]3O[C@@H](n4cnc5c(N)ncnc54)[C@H](O)[C@@H]3O)[C@@H](O)[C@H]2O)c1"
  Class Label: "inactive"
- Compound: "CCc1ccccc1NC(=O)/C(C#N)=C/c1ccc(OC)cc1"
  Class Label: "inactive"
- Compound: "N#C/C(=C\\c1ccc(Br)cc1)n1nnc2cc(F)c(F)cc21"
  Class Label: "active"
- Compound: "COc1ccc(CN2C(=O)C(Cl)=C(Nc3cccc(C(F)(F)F)c3)C2=O)cc1"
  Class Label: "inactive"
- Compound: "COc1ccc(-c2nc3c(N)c(CO)c(C)nc3o2)cc1"
  Class Label: "inactive"
- Compound: "CS(=O)(=O)c1ccc(Nc2nc(N[C@H]3CCCC[C@H]3N)nc3cc[nH]c(=O)c23)cc1"
  Class Label: "active"
